Numbers sourced from paper PMC11161652.

Target: MLL4PHD2/3 D285K (Homo sapiens, UniProt O14686, D285K)
Construct: MLL4 (aa 227-324); GST (N, cleaved yes); made in house; host or cells: E. coli BL21-CodonPlus
Sequence (O14686 227-324 D285K): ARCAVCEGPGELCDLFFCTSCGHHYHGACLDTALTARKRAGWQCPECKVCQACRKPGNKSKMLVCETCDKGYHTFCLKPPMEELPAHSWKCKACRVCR
Assay: NMR titration binding, D285K MLL4PHD2/3
Details: 1H,15N HSQC titration, 0.1 mM protein, 20 mM Tris pH 6.8, 150 mM NaCl, 3 mM DTT, 7% D2O, 298 K, mean ± SD, n = 3
Ends that are not written are not given here.
quantity-kind: Kd (µM)
Field format: number, assumed µM, no unit text.

Exercise: Need Kd of NRTGARTLADIKAKAQLVKAQ [ASXL2 650-670] , thanks.
Solution: 1700
